In what follows, each item is paired with its IC50 for Poly [ADP-ribose] polymerase 1 (Homo sapiens).
Respond numerically; units are nM and should not be typed.

Some solved entries appear below for comparison.
{"compound": "CNCc1ccc(-n2cc3ccc(F)c(C(N)=O)c3n2)cc1", "targetSystem": "Poly [ADP-ribose] polymerase 1 (Homo sapiens)", "quantityUnit": "nM", "IC50": 20}
{"compound": "NC(=O)c1cccc2cn(-c3cccc(C(=O)N4CCCNCC4)c3)nc12", "targetSystem": "Poly [ADP-ribose] polymerase 1 (Homo sapiens)", "quantityUnit": "nM", "IC50": 40}
{"compound": "CN1CCCCC1C(=O)Nc1ccc(-n2cc3cccc(C(N)=O)c3n2)cc1 (racemic)", "targetSystem": "Poly [ADP-ribose] polymerase 1 (Homo sapiens)", "quantityUnit": "nM", "IC50": 46}

# evaluate next
Given the compound "CN1CCC[C@@H](C(=O)Nc2ccc(-n3cc4cc(F)cc(C(N)=O)c4n3)cc2F)C1" , what is its reported IC50? 12

* * *

# targetSystem: Poly [ADP-ribose] polymerase 1 (Homo sapiens)
# Sequence (P09874 whole entry): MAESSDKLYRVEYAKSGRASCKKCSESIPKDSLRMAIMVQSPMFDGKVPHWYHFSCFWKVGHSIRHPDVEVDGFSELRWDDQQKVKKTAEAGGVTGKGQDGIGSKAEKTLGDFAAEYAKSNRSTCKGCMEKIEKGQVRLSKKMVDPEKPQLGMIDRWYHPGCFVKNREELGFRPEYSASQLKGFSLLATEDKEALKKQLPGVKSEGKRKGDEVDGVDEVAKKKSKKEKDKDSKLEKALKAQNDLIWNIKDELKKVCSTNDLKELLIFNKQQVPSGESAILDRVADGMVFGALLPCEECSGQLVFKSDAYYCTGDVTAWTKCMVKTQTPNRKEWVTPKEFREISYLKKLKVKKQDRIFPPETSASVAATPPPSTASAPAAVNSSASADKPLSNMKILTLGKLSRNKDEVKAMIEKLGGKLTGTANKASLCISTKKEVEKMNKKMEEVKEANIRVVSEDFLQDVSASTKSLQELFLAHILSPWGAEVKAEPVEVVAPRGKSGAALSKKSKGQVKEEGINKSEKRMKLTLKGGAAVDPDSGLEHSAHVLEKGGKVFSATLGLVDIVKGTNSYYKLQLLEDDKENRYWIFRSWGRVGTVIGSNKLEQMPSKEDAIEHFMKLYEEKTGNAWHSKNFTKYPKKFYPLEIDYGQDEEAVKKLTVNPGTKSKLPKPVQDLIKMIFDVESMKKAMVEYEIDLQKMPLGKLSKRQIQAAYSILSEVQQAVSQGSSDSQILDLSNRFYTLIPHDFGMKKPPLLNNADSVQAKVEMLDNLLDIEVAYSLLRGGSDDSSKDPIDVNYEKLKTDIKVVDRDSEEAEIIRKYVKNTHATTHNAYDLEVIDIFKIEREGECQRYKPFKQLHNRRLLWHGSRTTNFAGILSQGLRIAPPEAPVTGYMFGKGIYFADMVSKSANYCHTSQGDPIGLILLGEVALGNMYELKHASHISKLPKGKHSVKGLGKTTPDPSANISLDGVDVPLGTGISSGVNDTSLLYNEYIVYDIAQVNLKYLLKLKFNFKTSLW
attributeMeasured: IC50
Express the reported value numerically, then name its unit.

Some solved entries appear below for comparison.
{"structureSmiles": "NC(=O)c1cccc2cn(-c3ccc(C(=O)NCCN4CCOCC4)cc3)nc12", "targetSystem": "Poly [ADP-ribose] polymerase 1 (Homo sapiens)", "IC50": "54 nM"}
{"structureSmiles": "CNCc1ccc(-n2cc3cccc(C(N)=O)c3n2)cc1OC", "targetSystem": "Poly [ADP-ribose] polymerase 1 (Homo sapiens)", "IC50": "4 nM"}
{"structureSmiles": "NC(=O)c1cccc2cn(-c3ccccc3)nc12", "targetSystem": "Poly [ADP-ribose] polymerase 1 (Homo sapiens)", "IC50": "25 nM"}
{"structureSmiles": "NC(=O)c1cccc2cn(-c3ccc(NC(=O)CN4CCCC4)cc3)nc12", "targetSystem": "Poly [ADP-ribose] polymerase 1 (Homo sapiens)", "IC50": "10 nM"}

# evaluate next
Observed IC50 on Poly [ADP-ribose] polymerase 1 (Homo sapiens) for "CNCc1ccc(-n2cc3cccc(C(N)=O)c3n2)cc1" , please. 5 nM

* * *

# System: HeLa
# assayProtocol: Cytotoxicity against human BRCA1 deficient HeLa cells after 7 days by fluorimetric analysis
# Assay type: functional, cell-based
# studyConditions: 168 h
attributeMeasured: log10(IC50) (log10 of the value in µM)
Record value = log10 of IC50 given in µM.

Some solved entries appear below for comparison.
{"compound": "CNCc1ccc(-n2cc3cccc(C(N)=O)c3n2)cc1F", "log10(IC50)": -0.70}
{"compound": "CNCc1ccc(-n2cc3c(F)c(F)cc(C(N)=O)c3n2)cc1", "log10(IC50)": 0.41}
{"compound": "CN1CCC[C@@H](C(=O)Nc2ccc(-n3cc4cc(F)cc(C(N)=O)c4n3)cc2F)C1", "log10(IC50)": -0.36}
{"compound": "CN1CCCC(C(=O)N(C)Cc2ccc(-n3cc4cccc(C(N)=O)c4n3)cc2)C1 (stereo not drawn)", "log10(IC50)": 0.93}
{"compound": "CN1CCC(C(=O)Nc2ccc(-n3cc4cc(F)cc(C(N)=O)c4n3)cc2)CC1", "log10(IC50)": -0.28}

Given the compound "CNCc1ccc(-n2cc3cccc(C(N)=O)c3n2)cc1O" , what is its reported log10(IC50)? 0.53

Given the compound "NC(=O)c1cc(F)cc2cn(-c3ccc(NC(=O)C4CNC4)c(F)c3)nc12" , what is its reported log10(IC50)? -1.38
